All values here come from ChEMBL document CHEMBL1201862.

- Test system: SK-MEL-2
- Protocol description: NCI tumour cell line growth inhibition, 48 h
Active and inactive are the calls of the source. Rule as the data show it: active = GI50 up to about 1.1 µM and inactive = higher.
Catalogue of GI50 values

A selection of reference data follows.
COc1ccc(C(=O)C(CC2C(=O)CC(C)(C)C(C(=O)C(=O)Nc3c(C)cccc3C)C2=O)c2ccc(OC)cc2)cc1 (centres undefined): > 100 µM (inactive)
CC(=O)OC1CCC2(C)C(=CC(C3C=C4CC(OC(C)=O)CCC4(C)C4=C3C3CC5OC6(CCC(C)CO6)C(C)C5C3(C)CC4)C3=C2CCC2(C)C3CC3OC4(CCC(C)CO4)C(C)C32)C1 (centres undefined): 16.5 µM (inactive)
COC(=O)[C@@H]1CN(C(=O)c2ccccc2)C(=O)N1C(=O)OCc1ccccc1: > 100 µM (inactive)
O=C(Cc1cc(=O)oc2cc(O)ccc12)N/N=C/c1ccc(N(CCCl)CCCl)cc1: > 100 µM (inactive)
CCOC(=O)[C@H]1CSC[C@@H](C(=O)OC)N1: > 100 µM (inactive)
O=C(O)C(CSC(c1ccccc1)(c1ccccc1)c1ccccc1)/N=C/c1cccs1 (centres undefined): 2.06 µM (inactive)
c1ccc2c(c1)nc1n2CCSC1: > 100 µM (inactive)
C=CN1C(=O)OC[C@@H]1c1ccccc1: > 100 µM (inactive)

INPUT: Find GI50 (SK-MEL-2) for the entry NC1=NN(c2ccccc2)C(=O)C1C(=O)C(=O)Nc1cccc(C(F)(F)F)c1 (centres undefined)
OUTPUT: > 100 µM (inactive)

---

- Test system: UACC-257
- Protocol description: NCI tumour cell line growth inhibition, 48 h
Active and inactive are the calls of the source. Rule as the data show it: active = GI50 up to about 1.1 µM and inactive = higher.
Endpoint name: GI50

A selection of reference data follows.
COC1=CC(=O)OC(/C=C(C)/C=C/C2=C(C)CCCC2(C)C)C1 (stereo unspecified): > 100 µM (inactive)
CC1CCC2C(C)(C)CC3(C)CCC1C23O (stereo unspecified): 16.2 µM (inactive)
O=C1CCCc2c(O)ccc(O)c21: > 100 µM (inactive)
CN1C2CCC1CC(CCOC(c1ccc(F)cc1)c1ccc(F)cc1)C2 (stereo unspecified): 17.1 µM (inactive)
Cc1oc2nc1C(=O)NCc1nc(cs1)C(=O)N[C@H](C(C)C)c1nc(cs1)C(=O)N[C@H]2C: > 100 µM (inactive)

# next molecule below
INPUT: If you can, please state the reported GI50 value of Cc1ccc2[nH]c(=O)c(-c3cnc(O)nn3)c(O)c2c1 .
OUTPUT: 57.4 µM (inactive)

---

- Test system: OVCAR-5
- Protocol description: NCI tumour cell line growth inhibition, 48 h
The source made the active and inactive calls. Rule as the data show it: active = GI50 up to about 1.1 µM and inactive = higher.
Use one of these outcomes when replying: TRUE for active, FALSE for inactive

Check out these entries, answers already filled in.
CC(=O)OCC1OC(n2c(=O)n(-c3ccccc3)c(=O)c3ccccc32)C(OC(C)=O)C(OC(C)=O)C1OC(C)=O (stereo unspecified): FALSE
O=C1NC(O)n2c(=O)[nH]c(=O)n21 (stereo unspecified): FALSE
Nc1ccc2c(c1)N(C(=O)c1cc3cc(NC(=O)c4cc5ccccc5o4)ccc3[nH]1)CC2CCl (stereo unspecified): TRUE
O=C(Cn1c(=O)ccn(C2OC(CO)C(O)C2F)c1=O)c1ccc(F)cc1 (stereo unspecified): FALSE
C=CCOc1ccc(C2(O)c3ccccc3C3=NCCCN32)cc1 (stereo unspecified): FALSE
O=C1CCCc2c(O)ccc(O)c21: FALSE

INPUT: Recorded test call requested for O=C(O)/C(O)=C1/C=C(c2ccccc2)c2ccccc21
OUTPUT: FALSE

INPUT: Recorded test call requested for COC(=O)Oc1nn(C(=O)OC)c(=O)c2ccccc12
OUTPUT: FALSE

INPUT: Recorded test call requested for COC(=O)C1(NC(=O)C(CC(=O)OCc2ccccc2)NC(=O)OCc2ccccc2)CCCCCC1 (stereo unspecified)
OUTPUT: FALSE

INPUT: Recorded test call requested for COc1ccc(C(=O)/C=C/c2ccc(OCC(=N)N)cc2)cc1
OUTPUT: FALSE

INPUT: Recorded test call requested for CN(C)NC(=S)NC12CC3CC(CC(C3)C1)C2
OUTPUT: FALSE

---

- Test system: U-251
- Protocol description: NCI tumour cell line growth inhibition, 48 h
Calls of active or inactive are those of the source. No stated cut-off is given here; in the data, active = GI50 up to about 1.1 µM and inactive = higher.
Endpoint name: GI50

CC(C)(C)C(=O)N1C(C(=O)O)Cc2ccccc2[C@@H]1Cc1ccccc1 (stereo partly specified): > 100 µM (inactive)
COc1cc2cc3c4c(cc(OC)c(OC)c4c2cc1OC)CCN3C(=O)OCCN1CCNCC1: 15.3 µM (inactive)
COC1C(=O)N(SC)C1c1ccccc1Cl (stereo unspecified): 52.4 µM (inactive)
O=c1oc2c(O)c(O)c(O)c3c(=O)oc4c(O)c(O)cc1c4c23: 19.3 µM (inactive)
COc1ccc(C(=O)/C=C/c2ccc(OCC(=N)N)cc2)cc1: 13.9 µM (inactive)

# next molecule below
INPUT: Find GI50 (U-251) for the entry Oc1nc(S)nc2c1C(c1ccc(Cl)cc1)c1c(O)nc(S)nc1O2
OUTPUT: > 100 µM (inactive)

---

- System: NCI-H460
- Protocol description: NCI tumour cell line growth inhibition, 48 h
Active and inactive are the calls of the source. No stated cut-off is given here; in the data, active = GI50 up to about 1.1 µM and inactive = higher.
Endpoint name: GI50

CCOC(=O)C(C[Si](C)(C)C)P(=O)(OCC)OCC (stereo not given): > 100 µM (inactive)
CC(=O)OC1CC[C@]2(C)C3CC[C@@]4(C)C(CCC4[C@H](C)CCCC(C)C)[C@@H]3CCC2(Br)C1 (stereo not given in full): 39.7 µM (inactive)
CN(/N=C/c1ccc(Cl)c(Cl)c1)C1=NCCN1: 40.8 µM (inactive)
CNC(=O)C(NC(=O)[C@H](CC(C)C)NC(=O)[C@@H](S)CCN1C(=O)N(C)C(C)(C)C1=O)C(C)(C)C (stereo not given in full): > 100 µM (inactive)
CC(C)(C)Cc1cc(O)ccc1O: 63.4 µM (inactive)

# next compound below
INPUT: If you can, please state the reported GI50 value of Cc1nnc(-n2c(O)cc(=O)n(-c3ccccc3)c2=S)nc1/C=C/c1ccc(N(C)C)cc1 .
OUTPUT: 8.79 µM (inactive)

---

- System: HCT-15
Catalogue of GI50 values
Number only, in µM; omit the unit.

CC1CCC2(C)C(CC=C(C=O)C2(O)C=O)C12CO2 (stereo not given): 2.14

# next molecule below
INPUT: If you can, please state the reported GI50 value of CCOC(=O)c1c(Cl)nc2ccccc2c1N=[N+]=[N-] .
OUTPUT: 18.6

---

- Test system: RPMI-8226
- Protocol description: NCI tumour cell line growth inhibition, 48 h
Activity calls are given as the source filed them. Cut-off read from the data, not from the text of the source: active = GI50 up to about 1.1 µM and inactive = higher.
Use one of these outcomes when replying: active, inactive

Check out these entries, answers already filled in.
COc1ccc(C2=NOP(c3ccccc3)(c3ccccc3)(c3ccccc3)C2)cc1: inactive
c1ccc(COc2cccc3ccc[n+](Cc4ccccc4)c23)cc1: inactive
O=C(O)/C(O)=C1/C=C(c2ccccc2)c2ccccc21: inactive

INPUT: Recorded test call requested for CN(C)CCn1nc(N)c2nc3cc(C(F)(F)F)ccc3nc21
OUTPUT: inactive

INPUT: Recorded test call requested for O=C1NC(=O)C(c2c[nH]c3cc(Br)ccc23)=C1c1cnc[nH]1
OUTPUT: inactive

INPUT: Recorded test call requested for CCCCCCCCCCCCCCCCCCOCC(C[N+]1(C)CCC(O)CC1)OCC (stereo not drawn)
OUTPUT: inactive

INPUT: Recorded test call requested for COc1ccccc1CC1(O)OC(=O)c2ccccc21 (stereo not drawn)
OUTPUT: inactive

INPUT: Recorded test call requested for Nc1cccc2cc(S(=O)(=O)Nc3ccc(C(=O)O)cc3)ccc12
OUTPUT: inactive

INPUT: Recorded test call requested for Cc1cc2c(cc1Cl)SSc1cc(Cl)c(C)cc1S(=O)(=O)Nc1nc(N)nn1C(O)n1nc(N)nc1NS2(=O)=O
OUTPUT: inactive

INPUT: Recorded test call requested for CCCCCCc1cc2cc(C(=O)Nc3ccccc3)c(=N)oc2cc1O
OUTPUT: inactive

INPUT: Recorded test call requested for COc1ccc(/C=C/C(=O)c2sc(NC(=S)NC(=O)c3ccc(Cl)cc3)nc2C)cc1OC
OUTPUT: inactive

INPUT: Recorded test call requested for COC(=O)C1=C2SCc3cccc(c3)CSC3=C(C(=O)OC)SC(=C(S2)S1)S3
OUTPUT: inactive

INPUT: Recorded test call requested for N#Cc1c(N2CCCC2)ncn(-c2ccccc2)c1=S
OUTPUT: inactive

INPUT: Recorded test call requested for CC1=C(C(=O)N(C)c2ccc(Cl)c(C(=O)OC(C)C)c2)SCCO1
OUTPUT: inactive

INPUT: Recorded test call requested for CC(NNC(=O)c1ccncc1)c1cccc(C(F)(F)F)c1 (stereo not drawn)
OUTPUT: inactive

INPUT: Recorded test call requested for O=C(O)C1CC2C=CCC(C2)C1 (stereo not drawn)
OUTPUT: inactive

INPUT: Recorded test call requested for CCCCCC(C)C[C@H]1CO[C@H](c2ccc[nH]2)N[C@H]1C(=O)OC (stereo partly drawn)
OUTPUT: inactive

INPUT: Recorded test call requested for OC1c2ccccc2CCC1C(O)(C(F)(F)F)C(F)(F)F (stereo not drawn)
OUTPUT: inactive

INPUT: Recorded test call requested for Nc1ccc2c(c1)N(C(=O)c1cc3cc(NC(=O)c4cc5ccccc5o4)ccc3[nH]1)CC2CCl (stereo not drawn)
OUTPUT: active

INPUT: Recorded test call requested for O=C(OCCC12CC3CC(CC(C3)C1)C2)c1ccc(NCc2cc(O)ccc2O)cc1
OUTPUT: active

INPUT: Recorded test call requested for CN(N=O)C(=O)ON1C(=O)CCC1=O
OUTPUT: inactive

INPUT: Recorded test call requested for Oc1nc(S)nc2c1C(c1ccc(Cl)cc1)c1c(O)nc(S)nc1O2
OUTPUT: inactive

INPUT: Recorded test call requested for O=[N+]([O-])C(/C=C(\Cl)[N+](=O)[O-])=C(N1CCCCC1)N1CCCCC1
OUTPUT: inactive
